# run-description: yeast display, Sf9 membrane polyspecificity reagent, FACS + sequencing; frameworks hold sequencing errors
reported-metric: polyreactivity (PSR sort gate)

QVQLVESGGGLVQAGGSLRLSCAASGSTFRYYAMGWYRQAPGKERELVAAITSGGSTNYADSVKGRFTISRDNAKNTVYLQMNSLKPEDTAVYYCAAGRRLRHRYNQGGPDYGYWGQGTQVTVSS :: low polyreactivity
QVQLVESGGGLVQAGGSLRLSCAASGSIFGQYAMGWYRQAPGKERELVAAITDTGDSTYYADSVMGRFTISRDNAKNTVYLQMNSLKPEDTAVYYCAADVYYAFGSMYYWGQGTQVTVSS :: low polyreactivity

----------
# run-description: yeast display, Sf9 membrane polyspecificity reagent, FACS + sequencing; frameworks hold sequencing errors
reported-metric: polyreactivity (PSR sort gate)

QVQLVESGGGLVQAGGSLRLSCAASGITLWQYAMGWYRQAPGKERELVAGITDTGDSTYYADSVKGRVTISRDNAKNTVYLQMNSLKPEDTAVYYCAVPRSALLRAPYELYSWGQGTQVTVSS :: low polyreactivity
QVQLVESGGGLVQAGGSLRLSCADSGSTFQANAMGWYRQAPGKERELVATISNDGSTKYADSVKGRFTISRDNAKNTVYLQMNSLKPEDTALYYCAADSARHGRDTYQPEYRNDYWGQGTQVTVSS :: low polyreactivity
QVQLVESGGGLVQAGGSLRLICAASGSTFQSYAMGWYRQAPGKERELVAAISARGGTTYYADSVKGRFTISRDNAKNTVYLQMNSLKPEDTAVYYCAAVDHSVYSGSPDTGESDYWGQGTQVTVSS :: low polyreactivity

----------
# run-description: yeast display, Sf9 membrane polyspecificity reagent, FACS + sequencing; frameworks hold sequencing errors
reported-metric: polyreactivity (PSR sort gate)

QVQLVESGGGLVQAGGSLRLSCAASGFIFGKYAMGWYRQAPGKERELVAAISRSSRTFYADSVKGRFTISRDNAKNTVYLQMNSRKPEDTAVYYCAVKKRAPDGDYWGQGTQVTVSS :: high polyreactivity
QVQLVESGGGIVQAGGSLRLSCAASGRIFRRYAMVWSRQAPGKQRELVAAISSGGGSTYYADSVKGRFTISRDNAKNTVYLQMNSLKPEDTAVFYCDAASSPRYDYWGQGTQVTVSS :: high polyreactivity
QVQLVESGGGLVQAGGSLRLSCAASGRISYRNAMGWYRQAPGKERELVATITNGGSTYYADSVKGRFTISRDNAKNTVYLQMNSLKPEDTAVYYCAKEVWNWGPYYYWGQGTQVTVSS :: low polyreactivity
QVQLVESGGGLVQAGGSLRLSCAAAGSNFLGYAMGWYRQAPGKERELVANITSSGSTSYADSVKGRFTISRDNAKNTVYLQMNSLKPEVTAVYYCAARFRRTYDYWGQGTQVTVSS :: high polyreactivity

Prompt: Need polyreactivity (PSR sort gate) of QVQLVESGGGLVQAGGSLRLSCAASGSTFDNYAMGWYRQAPGKERELVAAISYSGGSTHYADSVKGRFTISRDNAKNTVYLQMNSLKPEDTAVYYCAADVSGDKGSIHMNYWGQGTQVTVSS , thanks.
Completion: low polyreactivity

----------
# run-description: yeast display, Sf9 membrane polyspecificity reagent, FACS + sequencing; frameworks hold sequencing errors
reported-metric: polyreactivity (PSR sort gate)

Recorded results for 10 sequences are shown here.
QVQLVESGGGLVQAGGSLRLSCAASGFIFVPYAMGWYRQAPGKEREFVAAIRCSGGRTYYADSVKGRFSISRDYAKNTVYLQMNSLKPDDTAVYYCAADTWQDRVRKTSFGYDYWGQGTQVTVSS :: high polyreactivity
QVQLVESGGGLVQAGGSLRLSCAASGRTFNGYAMGWYRQAPGKERELVASISWSGGRTYYADSVKGRFTISRDNAKNTVYLQMNSLIPEDTAVYYCNAYYYRVPRPWFDYWGQGTQVTVSS :: high polyreactivity
QVQLVESGGGLVQAGGSLRLSCAASGFIIDYYAKGWYRQAPGKERELVASITDSTTYYADSVKGRFTISRDNAKNTVYLQMNSLKPEDTAVYYCNARGGYAYVLYDYWGQGTQVTVSS :: low polyreactivity
QVQLGESGGALVQAGGSLRLSCAASGSTIYAYDMGWYRPAPGKERELVAAISSGGSTYYADSVKGRFTFSRDNAKNTVYLQMNCLKPEDTAVYYCATEYTYELEASEPSDYDYWGQGTQVTVSS :: low polyreactivity
QVQLVESGGGLVQAGGSLRLSCAASGRTFYWNAMGWYRQAPGKERELVAGISRGGGITYYADSVKGRFTISRDNAKYTVYLQMNSLKPEDTAVYYCNSRAGRQLARYGYWGQGTQVTVSS :: high polyreactivity
YYADSVKGLFTISRDNAKNTVYLQMNSLNPEDTAVYYCNAGYYISFNPYDYWGQGTQVTVSS :: low polyreactivity
QVQLVESGGGLVQAGGSLRLSCAASGRNFPGYARGWYRQAPGKEGELVAGINWSSGSTYYADSVKGRFTISRDNAKNTVYLQMNSLKPEDTAVYYCNALGYWRSTVHYVVGEVDYWGQGTQVTVSS :: low polyreactivity
QVQLVESGGGLVQAGGSLRLTCAASGIIFDDYAMGWYRQAPGKERELVAAISWIGTTTYYADSVKGRFTISRDNAKKTVYFQMNILKPEDTAVYYCNARPYPSYKYDYWGQGTQVTVSS :: high polyreactivity
QVQLVESGGGLVQAGGSLRLTCAASGSILYYAMGWYRQAPGKERELVAAITRSGTTTYYAASVKGRFTISRDNAKKTVYLQMNSLKPEDTAVYFWAARTSYDYDYWGQGTQVTVSS :: high polyreactivity
QVQLVESGGGLVQAGGSLRLSCAASGRTFGPYAMGWYRQAPGKERELVAAISRSGGRTYYADSVKGRFSISRDNAKNTVYLQMNSLKPEETAVYYCNALYLSTRSGDYWGQGSQVTVSS :: high polyreactivity

Field: next sequence
Prompt: Report polyreactivity (PSR sort gate) for QVQLVESGGGLVQAGGSIRLSCAASGSIFWYNAMGWYRQAPGKERELVAGITSGGDTNYADSVKGRFTISRDNAKNTVYLQMNRLKPEDTAVYYCAKRWDGGRRYDYWGQGTQVTVSS please.
Completion: low polyreactivity

----------
# run-description: yeast display, Sf9 membrane polyspecificity reagent, FACS + sequencing; frameworks hold sequencing errors
reported-metric: polyreactivity (PSR sort gate)

In the examples that follow, each entry is paired with its recorded polyreactivity (PSR sort gate).
QVQLVESGGGLVQAGGSLRLSCAASGIIFGRYAMGWYRQAPGKERELVAAINGSGGSTYYADSVKGRFTISRDNAKNTVYLQMNSLKPEDTAVYYCAVVYYGSIFVLEYDYWGQGTQVTVSS :: high polyreactivity
QVQLVESGGGLVQAGGSLRLTCAASGIIFFKNAMGWYRQAPGKERELVASINRSGGSTYYADSVKGRFTISRDNAKNTGYFQMNSLKPEDTAVFYCNARLTLRSYDYWGLGTQVTVSS :: low polyreactivity
QVQLVESGGGLVQAGGSLRLSCAASGGTLYLYAMGWYRPAPGKERELVAAISYNGGSTYADSVKGRFTISRDNAKNTVYLQMNSLKPEDTAVYYCAADRSPRCLGGYWGQGTQVTVSS :: low polyreactivity
QVQLVESGGGLVQAGGSLRLSCAASGSIFGYAMGWYRQAPGKERELVAAITVSGGRTYYADSVKGRFTISRDNAKNTVYLQMNSLKPEDTAVYYCAAYYIKGYSPGYWGQGTQVTVSS :: high polyreactivity

// below: polyreactivity (PSR sort gate) requested for another sequence
Prompt: Please report the recorded polyreactivity (PSR sort gate) for QVQLVESGGGLVQAGGSLRLSCAASGRIFYAYALGWYRQATGIERELVAAISRRGGSTYYADSVKGRFTISRDNAKNTVYLQMNSLKPEDTAVYYCAADRQFSYVYYIDPTAYEYCGQGTQVTVSS .
Completion: high polyreactivity

----------
# run-description: yeast display, Sf9 membrane polyspecificity reagent, FACS + sequencing; frameworks hold sequencing errors
reported-metric: polyreactivity (PSR sort gate)

Some sequences with recorded polyreactivity (PSR sort gate):
QVQLVESGGGLVQAGGILRLSCAASGRIFYINAMGWYRQAPGKERELVATISWSGGSTNYADSVKGRFTISRDNAKNTVYLQMKSLIPEDTAVYYCAADSRIYIAYAVRSYERDYWGQGTQVSVSS :: low polyreactivity
QVQLVESRGGLVQAGGSLRLSCAASGYAMGWYRQAPGKERELVAAITSGGSTNYADSVKGRFTISRDNAKNTVYLQMNSLKPVDTAVYYCAAAYSLYGHRYDYWGQGTQVTVSS :: high polyreactivity
QVQLVESGGGLVQAGGSLRISCAASRSTFGIYAMGWYRQAPGKERELVAAISFRCGRTYYADSVKGRFTISRDNAKNTVYLQMISLKPEDNAVYYCAATWYWGNAYWGQGTQVTVSS :: low polyreactivity
QVQLVESGGGLVQAGGSLRLSCAASGITFSGNAMGWYRQAPGKERELVAAISGRGGSTYYADSVKGRFTISRDNAKNTVYLQMNSLKPVDTAVYYCAADSPENRYNYWGQGTQVTVSS :: high polyreactivity
QVQLVESGGGLVQAGGILRLSCAASGSIFPNYAMGWYRQAPGKEREFVAAISSSGGSTYYADYVKGRFTISRENAKNTVYLQMNSLKPDDTAVYYCAAAYVGYYYSRGFDYWGQGTQVTVSS :: high polyreactivity

Prompt: Using the record for QVQLVESGGGLVQAGGSLRLSCAASGRTFGSNTMGWYRQAPGKERELVAAISGTGTSTYYADSVKGRFTISRDNAKNTVYLQMNSLKPEDTAVYYCAAGWYKYLFQPHDYWGQGTQVTVSS , report its polyreactivity (PSR sort gate).
Completion: low polyreactivity

Prompt: # lookup: polyreactivity (PSR sort gate) of QVQLVESGGGLVQTGGSLRLSCAASGSTFEYNAMGWYRQAPGKERELVAAITWTGGSRYYADSVKGRFTISRDNAKNSVYFQMNSLKPEDTAVYYCNAVSYVDIWDDRRYYYWGQGTQVTVSS
Completion: low polyreactivity

Prompt: polyreactivity (PSR sort gate) for QVQLVDSGGGLVQAGGSLRLSCAATGRIFAGYAMGGYRQAPGKERELVAAISDGGTTNYADSVKGRFTISRDNAKNTVYLQMNILKPEDTAVYYCAKDAAESYRYGYWGQGTQVTVSS ?
Completion: low polyreactivity

Prompt: I am curious: what polyreactivity (PSR sort gate) value has been reported for QVQLVESGGGLVQAGGRLRLSCAASGFTFYYKAMGWYRQAPGKEWELVASITWSGGRTYYADSVKGRFTISRDNAKNTVYFQMNSLKPEDTAVYYCNAGYCIGLVAYGYWGQGTQVTVSS ?
Completion: low polyreactivity

Prompt: polyreactivity (PSR sort gate) for QVQLVESGGGLVQAGGSLRLSCAASGSTFASYAMGWYIQAPGKERELVAAITDSGGSTYYADSVKGRFTISRDNAKNTVYLQMNSLKPEDTAVYYCAAYGPYFSYHDYDYWGQGTQVTVSS ?
Completion: low polyreactivity

Prompt: # query: polyreactivity (PSR sort gate) of entry QVQLVESGGGLVQAGGSLRLSCAAYSYVMGGYRQAPGKERELVAAISQSGGSTYYADSVKGRFTISRDNAKNTVYLQMNTLKPEDTAVYYCAASYQVRYDYWGQGTQVTVSS
Completion: high polyreactivity

Where do these numbers come from? They come from the nanobody polyreactivity screen of Harvey et al. (2022).
